For each entry below, report its T/C value.
Tested on: CD2F1 mice, L1210 leukemia ip, survival T/C
test.name: NCI In Vivo Anticancer Drug Screen. Data for tumor model L1210 Leukemia (intraperitoneal) in CD2F1 (CDF1) mice
settings: endpoint: mean survival time; dose: 400.0 mg/kg/injection; schedule: Q01DX009 (ip); vehicle: saline with Tween-80; higher = longer survival
Toxic doses and inconclusive results are not listed.

Example compounds with recorded T/C:
{"columns": ["compound", "experimental.system", "T/C"],
 "data": [
  ["O=C(NCCc1ccccc1)c1ccccc1", "CD2F1 mice, L1210 leukemia ip, survival T/C", "97 % of control"],
  ["Cc1ccccc1NC(=S)Nc1ccccn1", "CD2F1 mice, L1210 leukemia ip, survival T/C", "93 % of control"]
]}

// each compound listed below needs its T/C
1. Cc1ccc(NC(=O)c2cccc(Cl)c2)c(C)c1
2. NCc1ccccc1
3. O=c1cn[nH]c2cc(Cl)ccc12
4. CC(=O)Nc1ccccc1Sc1ccncc1[N+](=O)[O-]
5. OC1CCC(O)C2C3CCC(C3)C12 (centres undefined)
6. COc1ccc(C(C)c2ccccc2)cc1 (centres undefined)

result:
["96 % of control", "98 % of control", "92 % of control", "90 % of control", "102 % of control", "97 % of control"]

# return T/C for each item in the list
1. C=C(C)CON=C(c1ccccc1)c1ccccc1
2. COc1ccc(CCC(=O)O)cc1OC
3. CCCC(=O)Nc1ccccc1
4. C[Si](F)(c1cccc2ccccc12)c1cccc2ccccc12
5. CC(=O)Nc1c(N)nc(Nc2nc3ccccc3[nH]2)[nH]c1=O
6. COCC1OC(OC)C(OC)C(OC)C1OC (centres undefined)

result:
["98 % of control", "92 % of control", "112 % of control", "96 % of control", "93 % of control", "105 % of control"]

====

System: CD2F1 mice, L1210 leukemia ip, survival T/C
test.name: NCI In Vivo Anticancer Drug Screen. Data for tumor model L1210 Leukemia (intraperitoneal) in CD2F1 (CDF1) mice
settings: endpoint: mean survival time; dose: 300.0 mg/kg/injection; schedule: Q01DX001 (ip); vehicle: other; higher = longer survival
Toxic doses and inconclusive results are not listed.
For each entry below, report its T/C value.

Please review the following examples before continuing.
{"columns": ["compound", "T/C"],
 "data": [
  ["O=C(OC1CCC(c2ccccc2)C1)c1cc([N+](=O)[O-])cc([N+](=O)[O-])c1 (centres undefined)", "92 % of control"],
  ["Cc1ccc(S(=O)(=O)OC2CCCCC2c2ccc(C(F)(F)F)cc2)cc1 (centres undefined)", "88 % of control"]
]}

List reported T/C for each of these compounds:
1. CCN1CCSC1=S
2. O=C1CSC(=S)N1/N=C/c1ccccc1Cl

result:
103 % of control
94 % of control

====

Test system: CD2F1 mice, L1210 leukemia ip, survival T/C
test.name: NCI In Vivo Anticancer Drug Screen. Data for tumor model L1210 Leukemia (intraperitoneal) in CD2F1 (CDF1) mice
settings: endpoint: mean survival time; dose: 200.0 mg/kg/injection; schedule: Q01DX009 (ip); vehicle: water; higher = longer survival
Inconclusive results and toxic doses are left out.
Exercise: state measured T/C for each of the molecules provided.

Provide T/C values for the following items, in order.
1. CC(=O)Oc1ccc(N2C(=O)C3C(C2=O)C2c4ccccc4C3C3CCCCN32)cc1 (stereo not given) (tested in a mixture with another compound)
2. O=C1CC(=O)NC(=O)C1

result:
1. 90 % of control
2. 94 % of control

I would be grateful if you could provide T/C for each of the following entries.
1. OCC1OC(n2ncc3c2N=CN2CCN=C32)C(O)C1O (stereo not given)
2. COc1ccc(OC)c(CC(CC(=O)O)C(C)=O)c1 (stereo not given)
3. COc1cccc(/C=C/C(=O)O)c1OC

result:
1: 95 % of control; 2: 100 % of control; 3: 95 % of control

====

System: CD2F1 mice, L1210 leukemia ip, survival T/C
test.name: NCI In Vivo Anticancer Drug Screen. Data for tumor model L1210 Leukemia (intraperitoneal) in CD2F1 (CDF1) mice
settings: endpoint: mean survival time; dose: 75.0 mg/kg/injection; schedule: Q01DX001 (ip); vehicle: other; higher = longer survival
Inconclusive results and toxic doses are left out.
Exercise: state measured T/C for each of the molecules provided.

Some molecules with recorded T/C:
{"columns": ["molecule", "T/C"],
 "data": [
  ["CCN1CCS(=O)(=O)C1=O", "108 % of control"],
  ["O=C(OC1CCC(c2ccccc2)C1)c1cc([N+](=O)[O-])cc([N+](=O)[O-])c1 (configuration not stated)", "92 % of control"],
  ["CCN1CCSC1=S", "102 % of control"],
  ["COC1C(O)C(C)OC(O[C@@H]2C[C@H]3CC[C@@H]4[C@H](CC[C@]5(C)[C@@H](C6=CC(=O)OC6)CC[C@]45O)[C@@]3(C)[C@H](O)C2)C1O (some centres not stated)", "90 % of control"],
  ["Cc1nc2[nH]c(=O)n(O)c(=O)c2s1", "102 % of control"],
  ["COC1OC(COC(=O)c2ccccc2)C(N(C)C(C)=O)C1OC(=O)c1ccccc1 (configuration not stated)", "97 % of control"]
]}

query: Supply measured T/C of CN(C)c1nc(F)nc2c1ncn2C1OC(CO)C(O)C1O (configuration not stated) in your reply.
result: 100 % of control

====

I'd appreciate it if you could supply T/C values for the items below.
System: CD2F1 mice, L1210 leukemia ip, survival T/C
test.name: NCI In Vivo Anticancer Drug Screen. Data for tumor model L1210 Leukemia (intraperitoneal) in CD2F1 (CDF1) mice
settings: endpoint: mean survival time; dose: 200.0 mg/kg/injection; schedule: Q01DX009 (ip); vehicle: saline; higher = longer survival
Toxic doses and inconclusive results are not listed.

{"columns": ["test.smiles", "T/C"],
 "data": [
  ["N/C(=N\\c1nc(N)cc(=O)[nH]1)Nc1ccc(S(N)(=O)=O)cc1", "95 % of control"],
  ["CCN=C(NCC)S(=O)O", "97 % of control"],
  ["CC[n+]1ccc(Nc2ccc(NC(=O)c3ccc(C(=O)Nc4ccc(Nc5cc[n+](CC)c(N)n5)cc4)cc3)cc2)nc1N", "118 % of control"],
  ["COc1ccccc1/C=C/c1ccnc2ccccc12", "95 % of control"],
  ["O=Nc1ccc(NO)c2ccccc12", "102 % of control"]
]}

query: For C[Si](OCc1ccc(-c2ccccc2)cc1)c1ccccc1 , write its T/C.
result: 100 % of control

====

Tested on: CD2F1 mice, L1210 leukemia ip, survival T/C
test.name: NCI In Vivo Anticancer Drug Screen. Data for tumor model L1210 Leukemia (intraperitoneal) in CD2F1 (CDF1) mice
settings: endpoint: mean survival time; dose: 12.5 mg/kg/injection; schedule: Q01DX001 (ip); vehicle: saline with Tween-80; higher = longer survival
Toxic doses and inconclusive results are not listed.
result.type: T/C

Illustrative cases are given below, each with its answer.
{"columns": ["molecule", "test.result"],
 "data": [
  ["CCCCCCCCCCCCCCCC[N+]1(C)CCSCC1", "97 % of control"],
  ["CC1CCC2(OC1)OC1C(O)C3C4CCC5CC(OC6OC(CO)C(OC7OC(CO)C(O)C(OC8OCC(O)C(O)C8O)C7OC7OC(CO)C(O)C(OC8OC(CO)C(O)C(O)C8O)C7O)C(O)C6O)C(O)CC5(C)C4CCC3(C)C1C2C (centres undefined)", "103 % of control"]
]}

Working through the 2 molecules below one at a time, give T/C for each.
1. Clc1ccc(-c2nnn3ccccc23)cc1
2. COc1cccnc1/C=N/NC(N)=S

result:
1. 107 % of control
2. 109 % of control

====

Tested on: CD2F1 mice, L1210 leukemia ip, survival T/C
test.name: NCI In Vivo Anticancer Drug Screen. Data for tumor model L1210 Leukemia (intraperitoneal) in CD2F1 (CDF1) mice
settings: endpoint: mean survival time; dose: 75.0 mg/kg/injection; schedule: Q01DX001 (ip); vehicle: saline; higher = longer survival
Inconclusive results and toxic doses are left out.
Task for the reader: assign each of the following molecules its reported T/C.

Some molecules with recorded T/C:
{"columns": ["molecule", "experimental.system", "T/C"],
 "data": [
  ["CN(C)CC1CCCCC(Br)C1=O (stereo not drawn)", "CD2F1 mice, L1210 leukemia ip, survival T/C", "98 % of control"],
  ["OCCCl", "CD2F1 mice, L1210 leukemia ip, survival T/C", "104 % of control"],
  ["NCc1ccc(N)cc1", "CD2F1 mice, L1210 leukemia ip, survival T/C", "98 % of control"],
  ["COc1cc(C2CNCc3cc(O)c(OC)cc32)ccc1O (stereo not drawn)", "CD2F1 mice, L1210 leukemia ip, survival T/C", "106 % of control"],
  ["O=NN1CCCCCC1=O", "CD2F1 mice, L1210 leukemia ip, survival T/C", "108 % of control"],
  ["O=S(=O)(F)c1ccc(C[P+](c2ccccc2)(c2ccccc2)c2ccccc2)c(Cl)c1", "CD2F1 mice, L1210 leukemia ip, survival T/C", "103 % of control"],
  ["CC(=O)NC1=C(Sc2ccc(C)cc2)C(=O)c2ccccc2C1=O", "CD2F1 mice, L1210 leukemia ip, survival T/C", "96 % of control"]
]}

query: Kindly indicate its recorded T/C. Item: Cc1ccnc(OCCCCCNCCS)c1
result: 98 % of control
